Molecular target: CCDC6-RET-BaF3 (Homo sapiens)
Construct: fused on or other part: Q16204 (Coiled-coil domain-containing protein 6)
Sequence (P07949 whole entry, change not shown, the tested form may be a part): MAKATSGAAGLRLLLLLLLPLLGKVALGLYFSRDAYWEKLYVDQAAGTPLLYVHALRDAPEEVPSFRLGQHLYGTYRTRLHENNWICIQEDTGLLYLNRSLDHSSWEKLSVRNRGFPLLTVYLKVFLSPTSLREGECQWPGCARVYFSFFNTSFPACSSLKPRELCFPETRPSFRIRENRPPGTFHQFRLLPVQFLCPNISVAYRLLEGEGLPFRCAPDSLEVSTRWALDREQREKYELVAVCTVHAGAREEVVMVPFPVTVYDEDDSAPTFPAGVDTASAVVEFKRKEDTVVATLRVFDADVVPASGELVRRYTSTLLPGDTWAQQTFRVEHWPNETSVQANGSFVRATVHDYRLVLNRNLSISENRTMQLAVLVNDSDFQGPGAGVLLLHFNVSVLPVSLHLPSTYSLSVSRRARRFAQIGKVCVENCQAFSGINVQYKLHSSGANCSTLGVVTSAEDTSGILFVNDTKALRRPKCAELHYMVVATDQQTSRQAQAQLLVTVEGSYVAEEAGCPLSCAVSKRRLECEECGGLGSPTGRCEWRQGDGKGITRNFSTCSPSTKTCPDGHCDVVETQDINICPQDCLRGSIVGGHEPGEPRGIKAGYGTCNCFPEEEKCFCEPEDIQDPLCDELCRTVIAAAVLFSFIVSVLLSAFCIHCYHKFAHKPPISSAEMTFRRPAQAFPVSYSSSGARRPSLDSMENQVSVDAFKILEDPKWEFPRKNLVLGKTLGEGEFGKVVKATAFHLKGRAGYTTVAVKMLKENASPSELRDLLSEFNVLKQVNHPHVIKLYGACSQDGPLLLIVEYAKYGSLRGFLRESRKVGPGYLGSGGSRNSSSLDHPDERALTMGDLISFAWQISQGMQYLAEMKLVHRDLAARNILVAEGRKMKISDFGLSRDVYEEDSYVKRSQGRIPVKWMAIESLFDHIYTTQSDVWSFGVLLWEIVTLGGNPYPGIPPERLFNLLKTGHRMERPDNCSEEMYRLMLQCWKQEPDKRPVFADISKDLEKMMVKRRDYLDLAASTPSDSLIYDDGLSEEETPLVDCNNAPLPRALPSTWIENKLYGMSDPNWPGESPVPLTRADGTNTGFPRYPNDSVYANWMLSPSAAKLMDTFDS
Experiment: Growth inhibition of CCDC6-RET-BaF3 cells stably transfected with kinase (MTS)
Type: cell-based
Settings: 48 h, read-out: CCDC6-RET (IC50/nM)
QUANTITY: GI50 (nM)
// return numeric value only (unit: nM, not printed)

Examples from the recorded data:
{"STRUCTURE": "CN1CCN(Cc2ccc(C(=O)Nc3cc(Oc4nc(-c5ccc(O)cc5)nc5ccn(C)c45)ccc3Cl)cc2C(F)(F)F)CC1", "MEAS VALUE": 2300}
{"STRUCTURE": "CCC(=O)NCC1CCN(c2ccc(NC(=O)c3ccc(C)c(Oc4nc(-c5ccncc5)nc5cc[nH]c45)c3)cc2C(F)(F)F)CC1", "MEAS VALUE": 18300}
{"STRUCTURE": "Cc1ccc(C(=O)Nc2ccc(CN3CCN(C)CC3)c(C(F)(F)F)c2)cc1Oc1nc(-c2cccc(O)c2)nc2ccn(C)c12", "MEAS VALUE": 2960}

[Q] Provide value of GI50 for this record tested with CCDC6-RET-BaF3 (Homo sapiens): `CN1CCN(Cc2ccc(C(=O)Nc3cccc(Oc4nc(-c5ccncc5)nc5[nH]ncc45)c3)cc2C(F)(F)F)CC1`
[A] 78.6

[Q] Another molecule to check: `Cc1ccc(Oc2nc(-c3ccc(O)cc3)nc3ccn(C)c23)cc1NC(=O)c1ccc(CN2CCN(C)CC2)c(C(F)(F)F)c1`
[A] 876

[Q] Another molecule to check: `Cc1ccc(Oc2nc(-c3ccccc3)nc3nn(C)cc23)cc1C(=O)Nc1ccc(CN2CCN(C)CC2)c(C(F)(F)F)c1`
[A] 4150

[Q] Another molecule to check: `Cc1ccc(Oc2cc(-c3ccncc3)nc3sccc23)cc1C(=O)Nc1ccc(CN2CCN(C)CC2)c(C(F)(F)F)c1`
[A] 221
